Every entry's value here was drawn from ChEMBL document CHEMBL4402542.

Examples of molecules with documented Kd follow.
Test: Binding affinity to His6-tagged TPR2A (unknown origin) assessed as reduction in fluorescein-labeled C-terminal Hsp90/TRP2A protein-protein interaction incubated for 2 hrs by fluorescence polarization assay
Parameters: species or system Homo sapiens
The reply should contain only the number, in µM.

Consider the following illustrative entries.
- Compound Structure String: "Cn1nc(-c2ccccc2)nc2c(=O)n(C)c(=O)nc1-2"
  Value Observed: 1.04
- Compound Structure String: "Cc1nc2c(=O)n(C)c(=O)nc-2n(C)n1"
  Value Observed: 0.365
- Compound Structure String: "CCn1nc(-c2ccccc2)nc2c(=O)n(C)c(=O)nc1-2"
  Value Observed: 0.928
- Compound Structure String: "CCn1nc(-c2cccs2)nc2c(=O)n(C)c(=O)nc1-2"
  Value Observed: 0.308
- Compound Structure String: "Cn1nc(Cc2ccccc2)nc2c(=O)n(C)c(=O)nc1-2"
  Value Observed: 0.566

# ---- query molecule ----
Requested field: Kd. Item: `CCCc1nc2c(=O)n(C)c(=O)nc-2n(C)n1`
0.202

---

Biological target: Heat shock protein HSP 90-alpha (Homo sapiens)
Test: Inhibition of His6-tagged N-terminal human HSP90alpha expressed in Escherichia coli BL21 Lys cells preincubated for 10 mins followed by SA-APC and biotin-GM addition and measured after 6 hrs by TR-FRET assay
Recorded Endpoint: IC50 (µM)
The reply should contain only the number, in µM.

Quick check: IC50 on Heat shock protein HSP 90-alpha (Homo sapiens), item COc1cccc(C(=O)NC2CC3CCC(C2)N3c2ccc(C(N)=O)cn2)c1C (stereo unspecified) ?
0.641

---

Target: Heat shock protein HSP 90-alpha (Homo sapiens)
Test: Inhibition of FITC-geldanamycin binding to recombinant human HSP90alpha expressed in Escherichia coli preincubated for 2 hrs followed by Geldanamycin-FITC addition and measured after 5 hrs by fluorescence polarization competitive binding assay
Recorded Endpoint: Ki (nM)
The reply should contain only the number, in nM.

Requested field: Ki. Item: CCc1cc(C(N)=O)ccc1-n1nc(C(C)C)c2c(-n3cnc(-c4cnn(C)c4)c3)ccnc21 [TAS-116]
34.7

---

Target: Heat shock protein HSP 90-beta (Homo sapiens)
Sequence (P08238 whole entry): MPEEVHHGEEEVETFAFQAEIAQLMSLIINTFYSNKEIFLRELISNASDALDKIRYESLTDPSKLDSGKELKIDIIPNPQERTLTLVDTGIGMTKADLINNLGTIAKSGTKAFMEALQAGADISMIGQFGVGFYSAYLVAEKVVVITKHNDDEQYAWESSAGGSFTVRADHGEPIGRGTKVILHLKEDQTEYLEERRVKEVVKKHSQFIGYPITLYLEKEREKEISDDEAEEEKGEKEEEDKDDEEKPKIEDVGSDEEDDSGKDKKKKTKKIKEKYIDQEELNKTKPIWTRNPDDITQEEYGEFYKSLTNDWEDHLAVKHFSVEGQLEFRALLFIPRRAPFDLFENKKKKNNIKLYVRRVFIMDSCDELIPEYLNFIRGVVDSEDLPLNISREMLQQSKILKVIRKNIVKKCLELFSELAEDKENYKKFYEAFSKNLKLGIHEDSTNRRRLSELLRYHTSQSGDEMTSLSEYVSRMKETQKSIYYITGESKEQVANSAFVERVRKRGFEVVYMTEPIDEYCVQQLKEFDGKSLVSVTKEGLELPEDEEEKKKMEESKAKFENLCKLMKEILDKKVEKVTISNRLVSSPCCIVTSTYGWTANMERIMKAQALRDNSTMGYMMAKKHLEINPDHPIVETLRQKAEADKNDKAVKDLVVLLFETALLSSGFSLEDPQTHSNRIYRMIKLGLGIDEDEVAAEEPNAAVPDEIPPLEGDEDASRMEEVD
Assay: Inhibition of FITC-geldanamycin binding to recombinant human HSP90beta expressed in Escherichia coli preincubated for 2 hrs followed by Geldanamycin-FITC addition and measured after 5 hrs by fluorescence polarization competitive binding assay
Recorded Endpoint: Ki (nM)
The reply should contain only the number, in nM.

Requested field: Ki. Item: `CCc1cc(C(N)=O)ccc1-n1nc(C(C)C)c2c(-n3cnc(-c4cnn(C)c4)c3)ccnc21`
21.3

---

Molecular target: Heat shock protein 75 kDa, mitochondrial (Homo sapiens, UniProt Q12931)
Sequence (Q12931 whole entry, the tested form may be a part): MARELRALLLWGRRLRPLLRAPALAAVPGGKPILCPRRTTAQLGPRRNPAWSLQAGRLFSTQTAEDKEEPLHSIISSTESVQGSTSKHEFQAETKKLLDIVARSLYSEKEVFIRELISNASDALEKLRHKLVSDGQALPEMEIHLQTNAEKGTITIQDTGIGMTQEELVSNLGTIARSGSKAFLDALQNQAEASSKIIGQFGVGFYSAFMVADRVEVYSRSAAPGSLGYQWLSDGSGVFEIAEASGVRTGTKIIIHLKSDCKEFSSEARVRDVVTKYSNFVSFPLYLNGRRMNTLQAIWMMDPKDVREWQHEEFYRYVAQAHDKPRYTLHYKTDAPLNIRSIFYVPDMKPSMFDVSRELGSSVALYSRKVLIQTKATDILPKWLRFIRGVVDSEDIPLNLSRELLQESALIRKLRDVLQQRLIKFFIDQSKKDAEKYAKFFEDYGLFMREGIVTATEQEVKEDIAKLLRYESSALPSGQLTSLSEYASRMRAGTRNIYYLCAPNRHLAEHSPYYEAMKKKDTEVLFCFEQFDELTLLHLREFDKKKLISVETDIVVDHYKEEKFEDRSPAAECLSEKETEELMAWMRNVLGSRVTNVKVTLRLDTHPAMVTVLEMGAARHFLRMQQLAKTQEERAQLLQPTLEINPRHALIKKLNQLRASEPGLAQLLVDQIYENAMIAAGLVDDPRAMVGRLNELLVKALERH
Assay: Inhibition of FITC-geldanamycin binding to N-terminal His-tagged recombinant human TRAP1 (60 to 704 residues) expressed in Escherichia coli preincubated for 2 hrs followed by Geldanamycin-FITC addition and measured after 5 hrs by fluorescence polarization competitive binding assay
pKi: −log10 of the molar value.
Recorded Endpoint: pKi

Requested field: pKi. Item: `CCc1cc(C(N)=O)ccc1-n1nc(C(C)C)c2c(-n3cnc(-c4cnn(C)c4)c3)ccnc21`
< 4.30
